Where do these numbers come from? They come from ChEMBL document CHEMBL1201862.

System: SK-MEL-2
Run Description: NCI tumour cell line growth inhibition, 48 h
Active and inactive are the calls of the source. Cut-off read from the data, not from the text of the source: active = GI50 up to about 1.1 µM and inactive = higher.
Hi there, I'd appreciate the recorded GI50 for every entry that follows.

Example entries and their recorded answers appear below.
INSERT INTO results (compound, tested_on, value_measured) VALUES
  ('N#CC1=C(N2CCOCC2)CCC1', 'SK-MEL-2', '> 100 µM (inactive)'),
  ('CC(=O)C(/N=N\C1CCC(S(=O)(=O)NB2N=CS2)CC1)C(=O)Nc1ccccc1C (stereo unspecified)', 'SK-MEL-2', '17.9 µM (inactive)');

Quick batch: GI50 for everything below.
1. CCOC(=O)CCC(NC(=O)c1ccc(Nc2nc3cc(C(F)(F)F)ccc3nc2C(=O)OCC)cc1)C(=O)OCC (stereo unspecified)
2. COc1ccc(S(=O)(=O)Nc2ccc(-c3csc(N4C(=O)/C(=C/c5ccccc5[N+](=O)[O-])N=C4c4ccccc4)n3)cc2)cc1Cl
3. CCCCCC/C=C\CCCCCCCCCc1cccc(O)c1C(=O)O
4. CCOC(=O)/C=C/CCC(C)(C)COC(C)=O

["14.1 µM (inactive)", "60.5 µM (inactive)", "31.7 µM (inactive)", "> 10 µM (inactive)"]

Answer for every listed entry: what is its GI50? The entries follow.
1. COC(=O)c1ccccc1/N=C/c1ccc(N(CCC#N)S(=O)(=O)c2ccccc2)cc1
2. O=NN(CCCl)C(=O)NC1CCC(=O)NC1=O (stereo unspecified)

1: > 100 µM (inactive); 2: 225 µM (inactive)

Please state, for each entry, its recorded GI50.
1. N#C/C(=C\c1ccc(C(O)P(=O)(O)O)cc1)C(N)=O (stereo unspecified)
2. Cc1cc(S(=O)(=O)Nc2nc(N)n(C)n2)c(S)cc1Cl
3. CCCCCCCCCCCCCCCCCc1nnc(N)o1
4. CC1=Nc2c(C#N)ncn2N=C(C)C1
5. COC(=O)C(=O)C(C(=O)C(=O)Nc1ccccc1C(N)=O)c1nc2ccc([N+](=O)[O-])cc2nc1O (stereo unspecified)

["> 100 µM (inactive)", "> 10 µM (inactive)", "> 100 µM (inactive)", "> 100 µM (inactive)", "> 100 µM (inactive)"]

---

Tested on: SK-MEL-2
Run Description: NCI tumour cell line growth inhibition, 48 h
Active and inactive are the calls of the source. No stated cut-off is given here; in the data, active = GI50 up to about 1.1 µM and inactive = higher.
Endpoint: GI50

INSERT INTO results (compound, endpoint, value_measured) VALUES
  ('Cc1ccc(S(=O)(=O)C2=Cc3ccc(C(F)(F)F)cc3C2(O)c2cccc(C(F)(F)F)c2)cc1 (stereo not given)', 'GI50', '1.82 µM (inactive)'),
  ('O=C(O)CSC(CC(=O)c1ccc(Cl)cc1)c1ccc(Cl)cc1 (stereo not given)', 'GI50', '50.8 µM (inactive)'),
  ('Cc1ccccc1C(C#N)/C(=N/NC(=O)C(=O)NN)C(=O)Nc1cccc(C(F)(F)F)c1 (stereo not given)', 'GI50', '> 100 µM (inactive)'),
  ('Cc1ccc(C2SC(=N)Nc3c2c(C)nn3C(=O)c2ccncc2)cc1 (stereo not given)', 'GI50', '> 10 µM (inactive)'),
  ('CC(=O)n1nc(-c2[nH]c(C)c(-c3nn(C(C)=O)c(=S)o3)c2C)oc1=S', 'GI50', '> 62.4 µM (inactive)');

Please go through the list and note GI50 for each compound.
1. O=C1NC(c2ccccc2)(c2ccccc2)C(=O)N1CCCCCCN1C(=O)NC(c2ccccc2)(c2ccccc2)C1=O
2. N#CCc1nc(C#N)c(N)o1
3. O=[N+]([O-])C(C(Cl)=C(Cl)Cl)=C(N1CCOCC1)N1CCOCC1
4. COc1c(NC(C)=O)cc(C)cc1NC(C)=O
5. CN(C)c1cccc2c(S(=O)(=O)NCCCNCCN)cccc12

15.7 µM (inactive)
> 100 µM (inactive)
> 100 µM (inactive)
> 100 µM (inactive)
25.9 µM (inactive)

---

System: IGROV-1
Run Description: NCI tumour cell line growth inhibition, 48 h
Active and inactive are the calls of the source. Rule as the data show it: active = GI50 up to about 1.1 µM and inactive = higher.
Pick one and only one: y (active), n (inactive)

See these solved cases before continuing.
INSERT INTO assay_data (compound_smiles, discrete_label) VALUES
  ('COc1ccc(/C=C\c2cc(OC)c(OC)c(OC)c2)cc1OCC(=O)O', 'n'),
  ('CCN(CC)CCNc1ccc([N+](=O)[O-])c2nc3ccc(OC)cc3c(N)c12', 'y'),
  ('O=C(N/C(=C\c1cccc([N+](=O)[O-])c1)c1nc2cc([N+](=O)[O-])ccc2[nH]1)c1ccccc1', 'n'),
  ('C1CNOCCCONCCCNOCCCONC1', 'n');

Now consider the entry below.
Can you look up the reported call for `C=CC[C@H]1[C@H](O[Si](C)(C)C(C)(C)C)C=CC(=O)[C@@H]1CC(=O)N(Cc1ccccc1)Cc1ccccc1` for me?
n

---

Tested on: HT-29
Run Description: NCI tumour cell line growth inhibition, 48 h
The source made the active and inactive calls. No stated cut-off is given here; in the data, active = GI50 up to about 1.1 µM and inactive = higher.
Task for the reader: assign each of the following compounds its reported GI50.

Below: 3 compounds and their reported GI50.
INSERT INTO results (compound, value_measured) VALUES
  ('CC(=O)n1nc(-c2[nH]c(C)c(-c3nn(C(C)=O)c(=S)o3)c2C)oc1=S', '> 100 µM (inactive)'),
  ('C/C=C(/C)C(=O)O[C@H](C[C@@H](C)[C@H]1CC(c2ccoc2)OC1=O)[C@@]1(C)C(=O)CCC2O[C@]21C (some centres undefined)', '> 100 µM (inactive)'),
  ('CCCC1=C(CC)C(C(=O)Nc2c(C)cccc2C)=NC(S)N1 (centres undefined)', '> 100 µM (inactive)');

Next compound, GI50 to be filled in.
Give the measured GI50 of CCCCCC(/C=C/[C@@H]1[C@@H](C(O)CCCCCC(=O)OC)C(=O)C[C@H]1O[Si](C)(C)C(C)(C)C)OCOCCOC (some centres undefined) .
6.7 µM (inactive)

---

Test system: XF498
Run Description: NCI tumour cell line growth inhibition, 48 h
Calls of active or inactive are those of the source. Rule as the data show it: active = GI50 up to about 1.1 µM and inactive = higher.
Assignment: determine reported GI50 for the given molecules.

INSERT INTO assay_data (molecule, endpoint, value_measured) VALUES
  ('O=C(N/C(=C\c1cccc([N+](=O)[O-])c1)c1nc2cc([N+](=O)[O-])ccc2[nH]1)c1ccccc1', 'GI50', '20.7 µM (inactive)'),
  ('C=CCn1cc(C(=O)NC(=O)NCCCCCOC(=O)CCCCCCCCCCC(=O)OCCCCCNC(=O)NC(=O)c2cn(CC=C)c(=O)n(C)c2=O)c(=O)n(C)c1=O', 'GI50', '> 100 µM (inactive)'),
  ('Cc1c(/C=N/NC(=O)c2ccccc2O)c(=O)n(-c2ccccc2)n1C', 'GI50', '> 100 µM (inactive)');

Okay, now this molecule:
Reported GI50 for COC1C(C)OC(OC2CC(C)(O)Cc3cc4c(c(O)c32)C(=O)c2c(O)cc3c(c2C4=O)OC2OC3(C)C(O)C(N(C)C)C2O)C(OC)C1(C)OC (centres undefined) : what is it?
0.0165 µM (active)

---

System: HCC 2998
Run Description: NCI tumour cell line growth inhibition, 48 h
The source made the active and inactive calls. Cut-off read from the data, not from the text of the source: active = GI50 up to about 1.1 µM and inactive = higher.
Would you kindly list GI50 for each of these compounds?

INSERT INTO results (compound, value_measured) VALUES
  ('Cc1cc(O)c(C(C)C)cc1CN1CCCCC1', '> 100 µM (inactive)');

Fill in GI50 for each of the 7 compounds listed.
1. CCN(CC)S(=O)(=O)c1ccc2[nH]c(NC(=O)OC)nc2c1
2. O=C1[C@@H]2C3SC(c4ccccc43)[C@@H]2C(=O)N1c1ccccc1
3. N#CCc1nc(C#N)c(N)o1
4. Fc1ccc2c3c([nH]c2c1)CCN(Cc1ccccc1)C3
5. OCCCc1cc(O)c2c(c1)C(CO)C(c1ccc(O)c(O)c1)O2 (stereo unspecified)
6. Cc1cc(C)c(S(=O)(=O)N[C@@H](/C=C(\Br)CO)C(C)C)c(C)c1
7. CC(C)=CCCC1(Sc2ccccc2)C(=O)OCC1C=C(C)C (stereo unspecified)

["7 µM (inactive)", "> 100 µM (inactive)", "> 100 µM (inactive)", "13.2 µM (inactive)", "> 100 µM (inactive)", "24.5 µM (inactive)", "29.8 µM (inactive)"]

Report GI50 for each item below.
1. COc1ccc2nc3ccccc3c(NCCN(CCCl)CCCl)c2c1
2. Cc1c(O)c(OC2OC(CO)C(O)C(O)C2O)cc2c1C=C[C@@H]1[C@@]2(C)C(=O)C[C@]2(C)[C@@H]([C@@](C)(O)C(=O)CCC(C)(C)O)[C@H](O)C[C@@]12C (stereo partly specified)
3. COC1O[C@@H]2CCN3C(=O)[C@@H](OC(=O)c4ccc([N+](=O)[O-])cc4)[C@H]1C23 (stereo partly specified)
4. COc1cc[n+](C)cc1
5. O=C1OC(c2ccccc2)=N/C1=C\c1cc(Cl)ccc1Cl
6. CS(=O)(=O)N(CCC#N)c1ccc(C=O)cc1

1: 1.28 µM (inactive); 2: 20.5 µM (inactive); 3: > 100 µM (inactive); 4: > 100 µM (inactive); 5: > 100 µM (inactive); 6: > 100 µM (inactive)

State the recorded GI50 for every item in the following list.
1. CC[N+]1(C)CCC(O)(/C=C/c2ccccc2)C(C(=O)/C=C/c2ccccc2)C1 (stereo unspecified)
2. CCOC(=O)CCC(NC(=O)c1ccc(Nc2nc3cc(C(F)(F)F)ccc3nc2C(=O)OCC)cc1)C(=O)OCC (stereo unspecified)
3. NCC#CCNCCCN1CC1
4. C=CCOC1(CC=C)C(=O)OC2C(O)COC21O (stereo unspecified)
5. C=C(C)/C=C/C(O)[C@](C)(O)[C@H]1[C@H](O)C[C@@]2(C)[C@@H]3CCc4c(cc(OC5OC(CO)C(O)C(O)C5O)c(O)c4C)C3(C)C(=O)C[C@]12C (stereo partly specified)
6. CC(=O)NC(CCCNC(=O)OCc1ccccc1)C(=O)O (stereo unspecified)
7. O=C(NCCSSCCNC(=O)/C(Cc1ccc(O)c(Br)c1)=N/O)/C(Cc1ccc(O)c(Br)c1)=N/O

1: 16.7 µM (inactive); 2: 30.8 µM (inactive); 3: > 100 µM (inactive); 4: > 100 µM (inactive); 5: > 100 µM (inactive); 6: > 100 µM (inactive); 7: 2.17 µM (inactive)
